Values from PubChem BioAssay

- assayRemarks: binders from COS7 lysate, DM2A8 probe, primary screen, torsin A project, cell lysate, small-molecule microarray, fluorescence 635/667 (AID 1065)
- reportedConditions: higher = more signal, COS7 lysate expressing mutant human TOR1A
Quick rule for you: composite z-score at 0.02 or higher means MET, lower means NOT MET.

>>> label("O=C1C[C@]2(c3ccc([N+](=O)[O-])cc3)C(=O)N(CC(F)(F)F)c3cc(CO)ccc3[C@H]2N1CC12CC3CC(CC(C3)C1)C2")
"MET"
>>> label("COCC(=C=CC[C@@H](O)c1ccc(CO)o1)CCO")
"NOT MET"
>>> label("Cc1cc(C)cc(N2C(=O)CS(=O)(=O)C2c2cccc([N+](=O)[O-])c2)c1 (stereo not given)")
"MET"
>>> label("Cc1ccc(S[C@]2(C(=O)NC3CC3)CC(=O)N(C3CCCCC3)[C@@H]2c2ccc(CO)cc2I)cc1")
"MET"
>>> label("O=C(CCN1CCOCC1)c1cccc(O)c1")
"MET"
